molecular target: LXR β LBD protein (Homo sapiens (Human), UniProt P55055); experiment: biochemical; assay type: biochemical; conditions: read-out: FRET LXRβ EC50
Sequence (P55055 222-460): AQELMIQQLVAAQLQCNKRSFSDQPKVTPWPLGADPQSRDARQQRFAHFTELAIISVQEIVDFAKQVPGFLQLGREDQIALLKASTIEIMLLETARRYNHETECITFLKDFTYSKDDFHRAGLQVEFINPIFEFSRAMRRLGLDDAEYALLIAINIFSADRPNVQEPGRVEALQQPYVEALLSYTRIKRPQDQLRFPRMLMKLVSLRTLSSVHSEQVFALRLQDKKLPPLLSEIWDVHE
Binning scheme for EC50: band 1: < 300 nM; band 2: ≥ 300 nM and < 2000 nM; band 3: ≥ 2000 nM

Observe how each entry below is paired with its result.
> print(dat)
                                   compound  assigned.label
1  CS(=O)(=O)c1cccc(N2CCN(CC3CCCOC3)[C@@H](c3ccccc3)C2)c1 (some centres unmarked) [51-4]          band 3
2  C[C@]1(c2ccccc2)CN(c2cccc(S(C)(=O)=O)c2)CCN1Cc1ccc(C(F)(F)F)cc1 (single isomer, unassigned) [46-21]          band 3
3  C[C@@]1(c2ccccc2)CN(c2cccc(S(C)(=O)=O)c2)CCN1Cc1ccc(C(F)(F)F)cc1 [46-20]          band 3
4  Cc1ccccc1[C@H]1CN(c2cccc(S(C)(=O)=O)c2)CCN1Cc1ccc(C(F)(F)F)nc1 (single isomer, unassigned) [46-46]          band 2
5  CS(=O)(=O)c1cccc(N2CCN(Cc3ccc(C(F)(F)F)cc3)[C@@H](c3ccccc3)C2)c1 (single isomer, unassigned) [46-15]          band 2
6  CS(=O)(=O)c1cccc(N2CCN(CC3CCOCC3)[C@@H](c3ccccc3)C2)c1 [51-5]          band 3

Please indicate the class for CC(C)c1ccc(CN2CCN(c3cccc(S(C)(=O)=O)c3)C[C@H]2c2ccccc2)cc1 [46-7] based on its EC50.
band 3

Into which bin does this compound go? Cc1ccc(CN2CCN(c3cccc(S(C)(=O)=O)c3)C[C@H]2c2ccccc2)cc1 (single isomer, unassigned) [46-5]
band 3

For this compound, which bin applies? CS(=O)(=O)c1cccc(N2CCN(C[C@H]3CC[C@@H](C(F)(F)F)CC3)[C@@H](c3ccc(F)cc3)C2)c1 [Cpd No 48-43]
band 1
